Biological target: MAGE-A11:PCF11 (Homo sapiens (Human), UniProt P43364)
Sequence (P43364 218-429): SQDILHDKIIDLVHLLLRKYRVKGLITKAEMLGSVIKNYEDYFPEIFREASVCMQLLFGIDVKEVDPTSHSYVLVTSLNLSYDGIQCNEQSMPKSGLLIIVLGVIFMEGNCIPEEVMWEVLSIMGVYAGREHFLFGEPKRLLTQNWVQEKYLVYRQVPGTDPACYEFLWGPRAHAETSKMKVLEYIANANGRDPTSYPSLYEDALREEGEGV
Test: TR-FRET single point screening at 15 μM
Format: binding
Parameters: unit not given here
Conditions: single point TR-FRET screening of quinoline compounds against MAGE-A11:PCF11; 15 μM
quantity-measured: TR-FRET signal
Answer as a number with no unit attached.

Solved entries (count: 5):
| molecule | experimental-system | measured-value |
| --- | --- | --- |
| CCCN(CCCCCC(=O)OC)CCCNc1ccnc2cc(Cl)ccc12 [SJ000523017] | MAGE-A11:PCF11 (Homo sapiens (Human), UniProt P43364) | 14.3 |
| CCCN(CCCNc1ccnc2cc(Cl)ccc12)Cc1cccnc1 [SJ000357446] | MAGE-A11:PCF11 (Homo sapiens (Human), UniProt P43364) | 7.809 |
| Cc1ccc(F)cc1CN(CCCNc1ccnc2cc(Cl)ccc12)Cc1ccccc1 [SJ000520458] | MAGE-A11:PCF11 (Homo sapiens (Human), UniProt P43364) | 29.77 |
| CCCN(CCCNc1ccnc2cc(C(F)(F)F)ccc12)CCCc1ccccc1 [SJ000523080] | MAGE-A11:PCF11 (Homo sapiens (Human), UniProt P43364) | 28 |
| CCCN(CCCNc1ccnc2cc(Cl)ccc12)Cc1ccc(OC)c(F)c1 [SJ000522994] | MAGE-A11:PCF11 (Homo sapiens (Human), UniProt P43364) | 15.16 |

## Input Reported TR-FRET signal, molecule Cc1cccc(CN(CCCNc2ccnc3cc(Cl)ccc23)Cc2ccccc2)c1 [SJ000361183] : ____
## Output 6.02

## Input Note, next up: Clc1ccc2c(NCCCN(Cc3ccccc3)Cc3ccccc3)ccnc2c1 [SJ000361166]
## Output 14.76

* * *

Molecular target: MAGE-A11:PCF11 (Homo sapiens (Human), UniProt P43364)
Experiment: TR-FRET single point screening at 15 μM
Assay type: binding
Set-up: unit not given here
Conditions: single point TR-FRET screening of quinoline compounds against MAGE-A11:PCF11; 15 μM
Threshold rule: TR-FRET signal greater than or equal to 20 is met; below that, not met.

Take a look at these entries with their results.
| chem-smiles | assigned-label |
| --- | --- |
| CCCN(CCC)CCCNc1ccnc2cc(C(F)(F)F)ccc12 | not met |
| Clc1ccc2c(NCCCNCc3cc4ccccc4o3)ccnc2c1 | not met |
| FC(F)(F)c1ccc2c(NCCCNCC3CCCCC3)ccnc2c1 | met |
| CCCN(CCCNc1ccnc2cc(C(F)(F)F)ccc12)Cc1cccc2c1OCO2 | not met |
| CC(C)CCc1ccc2c(NCCCNCc3ccco3)ccnc2c1 | not met |
| Clc1ccc(Oc2ccc3c(NCCCNCc4ccco4)ccnc3c2)cc1 | met |

## Input # check: TR-FRET signal of CCCN(CCCNc1ccnc2cc(Cl)ccc12)Cc1c(C)n(C)n(-c2ccccc2)c1=O is greater than or equal to 20
## Output not met

## Input Repeat with CC(C)CN(CCCNc1ccnc2cc(Cl)ccc12)Cc1ccccc1
## Output not met

## Input Field entry: Cn1cc(CNCCCNc2ccnc3cc(Cl)ccc23)c2ccccc21
## Output not met

* * *

Molecular target: MAGE-A11:PCF11 (Homo sapiens (Human))
Test: TR-FRET single point screening at 15 μM
Format: binding
Set-up: unit not given here
Conditions: single point TR-FRET screening at 15 μM against MAGE-A11:PCF11
Would you please tag the item class 1 when its TR-FRET signal is -10 or above, and class 0 when it is below?

Example entries and their recorded answers appear below.
| compound | assigned-label |
| --- | --- |
| CCCN(CCCNc1c2ccc(Cl)cc2nc2ccc(OC)cc12)Cc1ccoc1 [SJ000520937] | class 0 |
| CCOC(=O)c1cnc2c(C)cc(C)cc2c1NCCN1CCOCC1 [SJ000172983] | class 1 |
| CCCN(CCCNc1c2ccc(Cl)cc2nc2ccc(OC)cc12)Cc1cccc(C#N)c1 [SJ000522739] | class 0 |

Would you kindly look at the next entry?
## Input Is TR-FRET signal at least -10? Consider CCCN(CCCCNc1ccnc2cc(Cl)ccc12)CCCSC [SJ000311197]
## Output class 1
